B1: Dystrobrevin alpha, residues 235 to 294; numbered along this chain, Q9Y4J8 (parent)
chain: ENVFHPVECSYCHSESMMGFRYRCQQCHNYQLCQDCFWRGHAGGSHSNQHQMKEYTSWKS

Variants of: B1
test_details: abundance fitness (aPCA) (normalised: wild type 0, dead -1); higher = more abundant; growth selection in yeast, the domain comes from the species named
conditions_used: Homo sapiens
So I've got a bunch of variants here, and I need their abundance fitness values.
Write the number on its own, no unit after it.

GET /value?item= K59C &field=abundance fitness returns -0.001

Briefly, abundance fitness measured for N29M : -0.044

The measured abundance fitness associated with H41A reads 0.013

Per the records, this variant ( K53Q ) has abundance fitness equal to 0.026

# abundance fitness of F4N = 0.037

Consider M52F . Its measured abundance fitness is -0.005

abundance fitness recorded for this variant, C9Q , is -1.05

The reported abundance fitness of the variant Q51G was -0.234

Input Y30V . Output abundance fitness: -0.206

Given item V3R , the value recorded as its abundance fitness is 0.011

Short answer for N2Q : abundance fitness was 0.019

In plain terms, M17R has a documented abundance fitness of 0.007

Entry G44L — recorded abundance fitness = -0.621

Sample N2H ; abundance fitness observed: -0.394

Value of measured abundance fitness for the entry G19P : 0.018

abundance fitness measured on H50P = -0.463

# variant C24N ; its abundance fitness = -0.691

// abundance fitness lookup, variant = M52L , result: -0.248

get_value(item= A42W , readout=abundance fitness) returns -0.29

Recorded result, E15M , abundance fitness: 0.074

The reported abundance fitness of the variant H50K was -0.438

Value of measured abundance fitness for the entry Y11G : -0.099
